tested on: Echinochloa crus-galli; experiment: Phytotoxicity against Echinochloa crus-galli assessed as inhibition of radicle elongation by petri dish bioassay; format: functional, organism-based
readoutName: IC50 (µM)
Answers are plain numbers, in µM.

Solved entries (count: 3):
{"molecule": "CCC(=O)O[C@@H]1c2c(ccc3ccc(=O)oc23)OC(C)(C)[C@@H]1OC(C)=O", "IC50 [µM]": 439}
{"molecule": "CC1(C)Oc2ccc3ccc(=O)oc3c2[C@@H](O)[C@H]1O", "IC50 [µM]": 439}
{"molecule": "COc1c2c(cc3oc(C)cc(=O)c13)OC(C)(C)[C@H](OC(=O)C(C)C)C2", "IC50 [µM]": 14.8}

Prompt: Return the recorded IC50 value; entry: CC1(C)Oc2ccc3ccc(=O)oc3c2C[C@H]1O [(+)-LOMATIN]
Completion: 296

Reference source: ChEMBL document CHEMBL1150585
